- assayProtocol: Aqueous solubility determination
- Type: physicochemical
- conditionSet: ultrapure distilled water containing 5% DMSO, 37 °C

compound | solubility at 10 min
CCCN(CCc1ccc(O)cc1)Cc1ccc(OCc2ccccc2)cc1 [Compound 33] | 267 µM

====

- assayProtocol: Cytotoxicity MTT assay, human neuroblastoma cell line
- conditionSet: SH-SY5Y neuroblastoma cells

compound | IC50 at 24 h
C=CCOc1ccc(CCN(CC=C)Cc2ccc(OC)c(OCc3ccccc3)c2)cc1 [Compound 1, reference compound] | > 125 µM
Oc1ccc(CCNCc2cccc(OCc3ccccc3)c2)cc1 | 21 µM
CC(CNCc1cccc(OCc2ccccc2)c1)c1ccccc1 (stereo not drawn) | 36 µM
COc1ccccc1CCNCc1cccc(OCc2ccccc2)c1 | 16 µM
Oc1ccc(CCNCc2ccc(OCc3ccccc3)cc2)cc1 | 13 µM
CCCN(CCc1ccc(O)cc1)Cc1ccc(OCc2ccccc2)cc1 | 38 µM
